ASSAY TARGET: dCK (Homo sapiens, UniProt P27707, C45S/C59S/C9S/S74E)
Construct: inferred from HisTrap purification with imidazole elution; made in house; host or cells: Escherichia coli BL21 pRIL
Sequence (P27707 whole entry C9S/C45S/C59S/S74E): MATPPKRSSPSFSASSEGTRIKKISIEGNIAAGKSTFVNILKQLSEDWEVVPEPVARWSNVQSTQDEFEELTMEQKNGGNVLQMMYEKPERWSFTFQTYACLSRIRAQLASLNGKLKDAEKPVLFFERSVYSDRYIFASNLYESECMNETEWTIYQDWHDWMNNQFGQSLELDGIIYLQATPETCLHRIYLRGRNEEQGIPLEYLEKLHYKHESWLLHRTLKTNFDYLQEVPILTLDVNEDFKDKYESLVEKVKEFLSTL
ASSAY COMMENT: Affinity assay: Thermal Shift Assay (TSA), dCK thermal stabilization
Format: binding
ASSAY SETUP: dCK protein (C9S, C45S, C59S, S74E); 5 sM of protein, 50 sM of compound, 2% DMSO; mean ± SD
Field: AFFINITY ASSAY +ΔTm (°). Provide a value for each of the compounds that follow.
The reply should consist of the numeric value with the unit placed after it.

q: Could you tell me which AFFINITY ASSAY +ΔTm (°) is on file for CCCN(c1nc(-c2nc(N)cc(N)n2)cs1)c1cc(-c2ccc(S(=O)(=O)N3CCN(C)CC3)nc2C(F)(F)F)ccc1C ?
a: 22.0 ± 0.4 °

q: Could you tell me which AFFINITY ASSAY +ΔTm (°) is on file for CCCN(c1nc(-c2nc(N)cc(N)n2)cs1)c1cc(-c2cnc(S(=O)(=O)N3CCN(C)CC3)cc2C(F)(F)F)ccc1C ?
a: 21.3 ± 0.8 °

q: Could you tell me which AFFINITY ASSAY +ΔTm (°) is on file for CCCN(c1nc(-c2nc(N)cc(N)n2)cs1)c1cc(-c2ccc(OCC(=O)N3CCN(C)CC3)nc2)ccc1C ?
a: 17.4 ± 0.2 °
